Assign Residual Amount (%) 15 min to each entry below.
assay: Metabolic stability in liver microsomes (human); assay type: in vitro ADME; details: Human, 15 min, first line of pair
Answers are plain numbers, in %.

Some solved cases for reference:
[
  {
    "MOLECULE": "[2H]C1([2H])N(C)C([2H])([2H])C([2H])([2H])N(c2ccc(OC(F)(F)F)c(Nc3ncc4c(n3)-c3c(c(C(N)=O)nn3CCO)CC4)c2)C1([2H])[2H]",
    "DISPLAY_UNIT": "%",
    "Residual Amount (%) 15 min": 86.05
  },
  {
    "MOLECULE": "CN1CCN(c2ccc(OC(F)(F)F)c(Nc3ncc4c(n3)-c3c(c(C(N)=O)nn3CCO)CC4)c2)CC1 [NMS-P937, onvansertib, reference compound]",
    "DISPLAY_UNIT": "%",
    "Residual Amount (%) 15 min": 80.23
  },
  {
    "MOLECULE": "O=C(O)Cc1ccccc1Nc1c(Cl)cccc1Cl [Diclofenac, reference compound]",
    "DISPLAY_UNIT": "%",
    "Residual Amount (%) 15 min": 10.78
  },
  {
    "MOLECULE": "NC(=O)c1nn(CCO)c2c1CCc1cnc(Nc3cc(N4CCN5CCC[C@@H]5C4)ccc3OC(F)(F)F)nc1-2",
    "DISPLAY_UNIT": "%",
    "Residual Amount (%) 15 min": 54.16
  }
]

[Q] Identify Residual Amount (%) 15 min associated with the molecule [2H]C1([2H])CN(c2ccc(OC(F)(F)F)c(Nc3ncc4c(n3)-c3c(c(C(N)=O)nn3CCO)CC4)c2)C([2H])([2H])[C@H]2CCCN21
[A] 52.72

* * *

experiment: Thermodynamic solubility test; format: physicochemical; details: phosphate buffer, aqueous buffer, thermodynamic from solid, pH 7.4, 25°C
PROPERTY_MEASURED: solubility at 24 h (mg/mL)
One number for each entry, in mg/mL.

Quick one: give me solubility at 24 h for each item below, same order please.
1. [2H]C1([2H])CN(c2ccc(OC(F)(F)F)c(Nc3ncc4c(n3)-c3c(c(C(N)=O)nn3CCO)CC4)c2)C([2H])([2H])[C@H]2CCCN21
2. CN1CCN(c2ccc(OC(F)(F)F)c(Nc3ncc4c(n3)-c3c(c(C(N)=O)nn3CCO)CC4)c2)CC1 [NMS-P937, onvansertib, reference compound]
3. NC(=O)c1nn(CCO)c2c1CCc1cnc(Nc3cc(N4CCN5CCC[C@@H]5C4)ccc3OC(F)(F)F)nc1-2
4. [2H]C1([2H])N(C)C([2H])([2H])C([2H])([2H])N(c2ccc(OC(F)(F)F)c(Nc3ncc4c(n3)-c3c(c(C(N)=O)nn3CCO)CC4)c2)C1([2H])[2H]

[A]
[0.003, 0.0248, 0.0021, 0.0226]

* * *

assay: Metabolic stability in liver microsomes (mouse); type: in vitro ADME; conditions: Mouse, 30 min, first line of pair
PROPERTY_MEASURED: Residual Amount (%) 30 min
Put down the number, then write its unit next to it.

[
  {
    "MOLECULE": "O=C(O)Cc1ccccc1Nc1c(Cl)cccc1Cl [Diclofenac, reference compound]",
    "MEAS_VALUE": "56.66%"
  }
]

Quick one: give me Residual Amount (%) 30 min for each item below, same order please.
1. NC(=O)c1nn(CCO)c2c1CCc1cnc(Nc3cc(N4CCN5CCC[C@@H]5C4)ccc3OC(F)(F)F)nc1-2
2. CN1CCN(c2ccc(OC(F)(F)F)c(Nc3ncc4c(n3)-c3c(c(C(N)=O)nn3CCO)CC4)c2)CC1 [NMS-P937, onvansertib, reference compound]
3. [2H]C1([2H])CN(c2ccc(OC(F)(F)F)c(Nc3ncc4c(n3)-c3c(c(C(N)=O)nn3CCO)CC4)c2)C([2H])([2H])[C@H]2CCCN21

[A]
39.33%
69.31%
39.18%

[Q] Identify Residual Amount (%) 30 min associated with the molecule [2H]C1([2H])N(C)C([2H])([2H])C([2H])([2H])N(c2ccc(OC(F)(F)F)c(Nc3ncc4c(n3)-c3c(c(C(N)=O)nn3CCO)CC4)c2)C1([2H])[2H]
[A] 68.21%

* * *

assay: in vivo; settings: female, CD1, mouse, plasma, iv, 2 mg/kg
PROPERTY_MEASURED: Vd (L/kg)
Numbers only, in L/kg.

[Q] Identify Vd associated with the compound CN1CCN(c2ccc(OC(F)(F)F)c(Nc3ncc4c(n3)-c3c(c(C(N)=O)nn3CCO)CC4)c2)CC1 [NMS-P937, onvansertib, reference compound]
[A] 5.71

* * *

test: in vivo; settings: mouse, in vivo, iv, 10 mg/kg
PROPERTY_MEASURED: clearance (mL/min/kg)
Give bare numbers, in mL/min/kg.

[Q] Identify clearance associated with the compound [2H]C1([2H])CN(c2ccc(OC(F)(F)F)c(Nc3ncc4c(n3)-c3c(c(C(N)=O)nn3CCO)CC4)c2)C([2H])([2H])[C@H]2CCCN21
[A] 50.1

* * *

assay: Metabolic stability in liver microsomes (mouse); assay type: in vitro ADME; settings: Mouse, 15 min, first line of pair
PROPERTY_MEASURED: Residual Amount (%) 15 min
Numbers only, in %.

Some solved cases for reference:
[
  {
    "COMPOUND": "NC(=O)c1nn(CCO)c2c1CCc1cnc(Nc3cc(N4CCN5CCC[C@@H]5C4)ccc3OC(F)(F)F)nc1-2 [CPD02]",
    "MEAS_VALUE": 56.76
  },
  {
    "COMPOUND": "[2H]C1([2H])CN(c2ccc(OC(F)(F)F)c(Nc3ncc4c(n3)-c3c(c(C(N)=O)nn3CCO)CC4)c2)C([2H])([2H])[C@H]2CCCN21 [CPD04]",
    "MEAS_VALUE": 61.30
  },
  {
    "COMPOUND": "O=C(O)Cc1ccccc1Nc1c(Cl)cccc1Cl [Diclofenac, reference compound]",
    "MEAS_VALUE": 61.24
  }
]

Quick one: give me Residual Amount (%) 15 min for each item below, same order please.
1. CN1CCN(c2ccc(OC(F)(F)F)c(Nc3ncc4c(n3)-c3c(c(C(N)=O)nn3CCO)CC4)c2)CC1 [NMS-P937, onvansertib, reference compound]
2. [2H]C1([2H])N(C)C([2H])([2H])C([2H])([2H])N(c2ccc(OC(F)(F)F)c(Nc3ncc4c(n3)-c3c(c(C(N)=O)nn3CCO)CC4)c2)C1([2H])[2H] [CPD06]

[A]
1: 82.56; 2: 81.80

* * *

assay: Metabolic stability in liver microsomes (human); format: in vitro ADME; conditions: Human, 60 min, first line of pair
Assign Residual Amount (%) 60 min to each entry below.
Put down the number, then write its unit next to it.

[
  {
    "COMPOUND": "O=C(O)Cc1ccccc1Nc1c(Cl)cccc1Cl [Diclofenac, reference compound]",
    "PROPERTY_MEASURED": "Residual Amount (%) 60 min",
    "MEAS_VALUE": "2.93%"
  },
  {
    "COMPOUND": "[2H]C1([2H])N(C)C([2H])([2H])C([2H])([2H])N(c2ccc(OC(F)(F)F)c(Nc3ncc4c(n3)-c3c(c(C(N)=O)nn3CCO)CC4)c2)C1([2H])[2H]",
    "PROPERTY_MEASURED": "Residual Amount (%) 60 min",
    "MEAS_VALUE": "63.15%"
  },
  {
    "COMPOUND": "CN1CCN(c2ccc(OC(F)(F)F)c(Nc3ncc4c(n3)-c3c(c(C(N)=O)nn3CCO)CC4)c2)CC1 [NMS-P937, onvansertib, reference compound]",
    "PROPERTY_MEASURED": "Residual Amount (%) 60 min",
    "MEAS_VALUE": "58.94%"
  }
]

Quick one: give me Residual Amount (%) 60 min for each item below, same order please.
1. NC(=O)c1nn(CCO)c2c1CCc1cnc(Nc3cc(N4CCN5CCC[C@@H]5C4)ccc3OC(F)(F)F)nc1-2
2. [2H]C1([2H])CN(c2ccc(OC(F)(F)F)c(Nc3ncc4c(n3)-c3c(c(C(N)=O)nn3CCO)CC4)c2)C([2H])([2H])[C@H]2CCCN21

[A]
13.71%
13.41%

* * *

assay: in vivo; conditions: female, CD1, mouse, plasma, iv, 10 mg/kg
Assign AUC(0-t) to each entry below.
Give bare numbers, in ng·h/mL.

[
  {
    "MOLECULE": "CN1CCN(c2ccc(OC(F)(F)F)c(Nc3ncc4c(n3)-c3c(c(C(N)=O)nn3CCO)CC4)c2)CC1 [NMS-P937, onvansertib, reference compound]",
    "PROPERTY_MEASURED": "AUC(0-t)",
    "MEAS_VALUE": 4540
  }
]

[Q] Identify AUC(0-t) associated with the molecule [2H]C1([2H])N(C)C([2H])([2H])C([2H])([2H])N(c2ccc(OC(F)(F)F)c(Nc3ncc4c(n3)-c3c(c(C(N)=O)nn3CCO)CC4)c2)C1([2H])[2H]
[A] 3050
